Values compiled from the supplement of paper PMC10567573.

B1: MYL5 (parent)
chain: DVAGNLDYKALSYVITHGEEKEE

Variants of: B1
Assay: protein stability index of a GFP-peptide fusion (GPS, HEK-293T) (PSI 1-6); higher = more stable;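 note: lentivirally expressed fusions sorted by FACS into six bins by GFP to DsRed ratio, PSI derived from sequencing read proportions per bin multiplied by bin number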
Conditions: c terminus: native
measured-attribute: protein stability index
Form field (numeric): enter value without unit.

Before answering, review these 3 worked examples.
{"columns": ["sequence-code", "protein stability index"],
 "data": [
  ["CVAGNLDYKALSYVITHGEEKEE [D1C]", 2.21],
  ["DVIGNLDYKALSYVITHGEEKEE [A3I]", 1.71],
  ["DVAGNADYKALSYVITHGEEKEE [L6A]", 2.55]
]}

Tell me measured protein stability index for DVAGNVDYKALSYVITHGEEKEE [L6V] please.
1.36

Tell me measured protein stability index for DVAGNLDYKALSYVIDHGEEKEE [T16D] please.
2.01

Tell me measured protein stability index for DVAGNLDYKALSYVITHGEEKIE [E22I] please.
4.14

Tell me measured protein stability index for QVAGNLDYKALSYVITHGEEKEE [D1Q] please.
2.1

Tell me measured protein stability index for DVPGNLDYKALSYVITHGEEKEE [A3P] please.
1.83

Tell me measured protein stability index for DVADNLDYKALSYVITHGEEKEE [G4D] please.
1.82

Tell me measured protein stability index for DVAGNLDYKALSYVITHGEEKLE [E22L] please.
4.25
